// provenance: paper PMC6611172

molecular target: GST-tagged GAS41 YEATS (residues 1–148) (human, UniProt O95619 1-148); assay: ITC
Sequence (O95619 1-148): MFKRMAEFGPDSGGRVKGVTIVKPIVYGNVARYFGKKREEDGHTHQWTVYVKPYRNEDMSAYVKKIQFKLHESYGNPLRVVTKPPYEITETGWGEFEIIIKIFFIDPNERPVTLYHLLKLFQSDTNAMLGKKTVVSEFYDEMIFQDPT
Ends that are not written are not given here.
Value Kind: pKd
Lab note — pKd values are minus log10 of concentrations in M.

Record ATK(Ac)AARK(Ac)SAP [H3K23acK27ac peptide] , field pKd: 4.87
